target_or_test_system: recombinant EBV gp350 ectodomain (aa 4–863) (Epstein-Barr virus, strain  …, UniProt P03200-1)
Sequence (P03200 4-863): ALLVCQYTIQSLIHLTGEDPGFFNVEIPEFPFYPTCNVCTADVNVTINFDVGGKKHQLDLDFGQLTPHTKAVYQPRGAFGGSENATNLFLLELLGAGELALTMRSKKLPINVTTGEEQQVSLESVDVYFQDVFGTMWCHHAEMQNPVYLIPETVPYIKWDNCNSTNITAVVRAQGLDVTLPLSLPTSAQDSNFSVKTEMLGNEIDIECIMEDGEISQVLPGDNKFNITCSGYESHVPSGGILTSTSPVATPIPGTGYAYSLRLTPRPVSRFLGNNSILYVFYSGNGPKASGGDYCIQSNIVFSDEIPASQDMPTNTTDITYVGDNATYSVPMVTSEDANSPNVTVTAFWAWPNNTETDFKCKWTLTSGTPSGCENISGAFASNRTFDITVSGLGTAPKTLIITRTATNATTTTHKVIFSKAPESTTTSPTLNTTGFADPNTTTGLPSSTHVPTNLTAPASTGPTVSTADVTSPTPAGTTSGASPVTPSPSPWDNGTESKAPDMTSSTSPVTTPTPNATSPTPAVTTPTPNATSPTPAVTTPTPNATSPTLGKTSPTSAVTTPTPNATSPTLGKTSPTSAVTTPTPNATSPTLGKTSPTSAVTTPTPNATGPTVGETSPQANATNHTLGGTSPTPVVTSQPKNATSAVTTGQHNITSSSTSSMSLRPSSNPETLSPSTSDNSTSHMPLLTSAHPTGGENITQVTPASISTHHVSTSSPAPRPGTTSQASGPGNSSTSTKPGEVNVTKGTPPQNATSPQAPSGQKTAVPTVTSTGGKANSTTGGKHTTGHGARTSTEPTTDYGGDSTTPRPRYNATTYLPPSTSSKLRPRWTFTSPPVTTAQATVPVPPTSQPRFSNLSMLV
experiment_summary: ELISA

{"binder": "HB7 (antibody, V domains shown) VH: ELVRPGASVKLSCKALGYTFTDYEMHWVKQTPVHGLEWIGTISPGRSGTAYNQKFKGKATLTADKSSRTAYMELNSLTSEDSAVYYCSRYGHPSYLDVWGAGTTVTVSS VL: FMSTSVGDRVNITCKASQSVGNAVAWFQQKPGQSPKLLIYSASNRYTGIPDRFTGSGSGTDFTLTCNNMQSEDLADYFCQQYSSYPLTFGAGTKLELK", "binding result": "binds"}
{"binder": "HB8 (antibody, V domains shown) VH: ELKKPGETVKISCKASGYSFTNYGMNWVKQAPGKGLKWMGWINTYTGEPTYADDFKGRFAFSLETSASTAFLQINNLKNEDTATYLCARYYYGSVYSAWFAYWGQGTLVTVSA VL: LSLPVSLGDQASISCRSSQSIVHSNGNTYLEWYLQKAGQSPKLLIYKVSNRFSGVPDRFGGSGSGTDFTLKISRVEAEDLGVYYCFQGSHVPYTFGGGTKLEIK", "binding result": "binds"}
